The following compounds are shown together with reported Cell Death (%) in combination with AZD-6244 values.
- Tested on: HUH7 (human hepatoma cell line)
- Assay Info: Cell death detection, trypan blue exclusion assay, HUH7, in combination with AZD-6244
- Format: cell-based
- Experimental Parameters: HUH7, 6-day treatment, compound 0.5 μM, AZD-6244 0.5 μM
Test Readout: Cell Death (%) in combination with AZD-6244

Compound | Experimental Result
CNC(=O)c1cc(Oc2ccc(NC(=O)Nc3cccc(S(F)(F)(F)(F)F)c3)cc2)ccn1 | 99%
CNC(=O)c1cc(Oc2ccc(NC(=O)Nc3cccc(S(F)(F)(F)(F)F)c3)c(F)c2)ccn1 | 99%
CNC(=O)c1cc(Oc2ccc(NC(=O)Nc3ccc(Cl)c(S(F)(F)(F)(F)F)c3)cc2)ccn1 | 94.6%
CNC(=O)c1cc(Oc2ccc(NC(=O)Nc3ccc(Cl)c(C(F)(F)F)c3)cc2)ccn1 [Sorafenib, reference compound] | 97.3%

###

- Test system: HT29 (human colon adenocarcinoma cell line)
- Assay Info: Cell death detection, trypan blue exclusion assay, HT29
- Type: cell-based
- Experimental Parameters: HT29, 5-day treatment, 10 uM

Molecule | Cell Death (%) at Tested Concentration
CNC(=O)c1cc(Oc2ccc(NC(=O)Nc3cccc(S(F)(F)(F)(F)F)c3)cc2)ccn1 | 68.7
CNC(=O)c1cc(Oc2ccc(NC(=O)Nc3cc(S(F)(F)(F)(F)F)ccc3Cl)c(F)c2)ccn1 | 22.1
CNC(=O)c1cc(Oc2ccc(NC(=O)Nc3cccc(S(F)(F)(F)(F)F)c3)c(F)c2)ccn1 | 24.8
CNC(=O)c1cc(Oc2ccc(NC(=O)Nc3ccc(Cl)c(S(F)(F)(F)(F)F)c3)c(F)c2)ccn1 | 44.6
CNC(=O)c1cc(Oc2ccc(NC(=O)Nc3ccc(Cl)c(S(F)(F)(F)(F)F)c3)cc2)ccn1 | 30.7
CNC(=O)c1cc(Oc2ccc(NC(=O)Nc3ccc(Cl)c(C(F)(F)F)c3)cc2)ccn1 [Sorafenib, reference compound] | 27.6
CNC(=O)c1cc(Oc2ccc(NC(=O)Nc3ccc(S(F)(F)(F)(F)F)cc3)c(F)c2)ccn1 | 56.7

###

- Tested on: Hep3B (human hepatoma cell line)
- Assay Info: Cell death detection, trypan blue exclusion assay, Hep3B
- Type: cell-based
- Experimental Parameters: 5-day treatment, 0.25 uM
Test Readout: Cell Death (%) at Tested Concentration

Molecule | Study Target | Experimental Result
CNC(=O)c1cc(Oc2ccc(NC(=O)Nc3ccc(Cl)c(S(F)(F)(F)(F)F)c3)cc2)ccn1 | Hep3B (human hepatoma cell line) | 3.3
CNC(=O)c1cc(Oc2ccc(NC(=O)Nc3cccc(S(F)(F)(F)(F)F)c3)cc2)ccn1 | Hep3B (human hepatoma cell line) | 3.8
CNC(=O)c1cc(Oc2ccc(NC(=O)Nc3cc(S(F)(F)(F)(F)F)ccc3Cl)c(F)c2)ccn1 | Hep3B (human hepatoma cell line) | 3.9
CNC(=O)c1cc(Oc2ccc(NC(=O)Nc3ccc(Cl)c(C(F)(F)F)c3)cc2)ccn1 [Sorafenib, reference compound] | Hep3B (human hepatoma cell line) | 3.0

###

- Test system: HepG2 (human Hepatocellular carcinoma cell line)
- Assay Info: Cell death detection, trypan blue exclusion assay, HepG2
- Type: cell-based
- Experimental Parameters: HepG2, 5-day treatment, 3.0 uM

Query Smiles | Value Units | Cell Death (%) at Tested Concentration
CNC(=O)c1cc(Oc2ccc(NC(=O)Nc3cccc(S(F)(F)(F)(F)F)c3)cc2)ccn1 | % | 32.4
CNC(=O)c1cc(Oc2ccc(NC(=O)Nc3ccc(Cl)c(S(F)(F)(F)(F)F)c3)cc2)ccn1 | % | 4.2
CNC(=O)c1cc(Oc2ccc(NC(=O)Nc3cccc(S(F)(F)(F)(F)F)c3)c(F)c2)ccn1 | % | 94.7

Value source: patent US8937088B2
